targetEntity: OCT2 (SLC22A2) (Homo sapiens, UniProt O15244)
Sequence (O15244 1-555): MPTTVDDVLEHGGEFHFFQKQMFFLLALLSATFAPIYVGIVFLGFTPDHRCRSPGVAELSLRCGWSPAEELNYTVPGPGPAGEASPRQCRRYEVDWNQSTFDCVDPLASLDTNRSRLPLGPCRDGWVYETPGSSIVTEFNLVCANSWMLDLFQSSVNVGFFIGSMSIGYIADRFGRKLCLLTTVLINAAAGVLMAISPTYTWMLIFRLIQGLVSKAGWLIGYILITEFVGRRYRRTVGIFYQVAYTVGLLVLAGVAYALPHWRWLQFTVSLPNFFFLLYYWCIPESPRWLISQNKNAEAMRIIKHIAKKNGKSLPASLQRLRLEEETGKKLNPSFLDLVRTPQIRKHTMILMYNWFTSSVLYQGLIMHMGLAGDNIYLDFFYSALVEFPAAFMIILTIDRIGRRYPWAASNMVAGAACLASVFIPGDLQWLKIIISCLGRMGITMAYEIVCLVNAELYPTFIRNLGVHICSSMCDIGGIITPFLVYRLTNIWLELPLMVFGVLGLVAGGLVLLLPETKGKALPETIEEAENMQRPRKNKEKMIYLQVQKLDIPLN
experimentNotes: Cellular uptake into OCT2-overexpressing HEK293 cells vs EV control cells (HPLC-MS/MS)
assayConditions: 10 μM substrate, 2 min, HEK293
Marks after values point to notes of the source that are not given here.
reportedProperty: uptake ratio OCT2 (transporter-overexpressing cells over EV control cells): mean (±SD, N)

molecule: CCCCCCN
targetEntity: OCT2 (SLC22A2) (Homo sapiens, UniProt O15244)
result: 1.6 (0.4, 4)
--
molecule: NCCO
targetEntity: OCT2 (SLC22A2) (Homo sapiens, UniProt O15244)
result: 0.4 (0.2, 4) ^b
--
molecule: CC(C)N
targetEntity: OCT2 (SLC22A2) (Homo sapiens, UniProt O15244)
result: 5.3 (1.7, 3) ^a
--
molecule: CC(C)(C)N
targetEntity: OCT2 (SLC22A2) (Homo sapiens, UniProt O15244)
result: 3.8 (1.6, 4) ^a
--
molecule: CCN(CC)CC
targetEntity: OCT2 (SLC22A2) (Homo sapiens, UniProt O15244)
result: 5.0 (1.3, 4) ^b
--
molecule: CC(N)CN(CC(C)N)CC(C)N (stereo not shown)
targetEntity: OCT2 (SLC22A2) (Homo sapiens, UniProt O15244)
result: - ^d
--
molecule: CNCCCO
targetEntity: OCT2 (SLC22A2) (Homo sapiens, UniProt O15244)
result: 2.6 (1.0, 4) ^a
--
molecule: NCC(O)CN
targetEntity: OCT2 (SLC22A2) (Homo sapiens, UniProt O15244)
result: 3.7 (2.4, 3)
--
molecule: CCCCN
targetEntity: OCT2 (SLC22A2) (Homo sapiens, UniProt O15244)
result: 6.4 (2.0, 5) ^b
--
molecule: CCCCCCCN
targetEntity: OCT2 (SLC22A2) (Homo sapiens, UniProt O15244)
result: 4.2 (3.1, 6) ^a
--
molecule: CC(C)CN
targetEntity: OCT2 (SLC22A2) (Homo sapiens, UniProt O15244)
result: 3.4 (1.2, 4) ^a
--
molecule: CCCCCN
targetEntity: OCT2 (SLC22A2) (Homo sapiens, UniProt O15244)
result: 6.7 (3.2, 4) ^a
--
molecule: CCN(CC)CCO
targetEntity: OCT2 (SLC22A2) (Homo sapiens, UniProt O15244)
result: 4.0 (1.5, 3)

---

targetEntity: OCT2 (SLC22A2) (Homo sapiens, UniProt O15244)
experimentNotes: Cellular uptake into OCT2-overexpressing HEK293 cells vs EV control cells (HPLC-MS/MS)
assayConditions: 2.5 μM substrate (§), 2 min, HEK293
Marks after values point to notes of the source that are not given here.
Reported values of uptake ratio OCT2 (transporter-overexpressing cells over EV control cells): mean (±SD, N) for individual entries
reportedProperty: uptake ratio OCT2 (transporter-overexpressing cells over EV control cells): mean (±SD, N)

compound: NCCCCO
targetEntity: OCT2 (SLC22A2) (Homo sapiens, UniProt O15244)
result: 5.4 (1.1, 3) ^a

compound: CCC(C)(C)N
targetEntity: OCT2 (SLC22A2) (Homo sapiens, UniProt O15244)
result: 4.7 (2.1, 3)

compound: CCC[C@H](N)CO [(S)-(+)-2-amino-1-pentanol]
targetEntity: OCT2 (SLC22A2) (Homo sapiens, UniProt O15244)
result: 6.0 (1.7, 4) ^b

compound: CC(C)(C)[C@H](N)CO
targetEntity: OCT2 (SLC22A2) (Homo sapiens, UniProt O15244)
result: 10.8 (1.4, 3) ^b

compound: CC(N)CCCC(C)(C)O (stereo not drawn)
targetEntity: OCT2 (SLC22A2) (Homo sapiens, UniProt O15244)
result: 8.7 (5.0, 3)

compound: CC[C@H](C)[C@H](N)CO [(S)-(+)-isoleucinol]
targetEntity: OCT2 (SLC22A2) (Homo sapiens, UniProt O15244)
result: 7.6 (1.5, 4) ^b

---

targetEntity: OCT2 (SLC22A2) (Homo sapiens, UniProt O15244)
experimentNotes: in vitro
assayConditions: pH 7.4
# reported selectivity ratio at 2 min; entries follow
reportedProperty: selectivity ratio at 2 min

compound: CC(C)[C@H](N)CO
quantitativeResult: 1.04
--
compound: CC(C)C[C@H](N)CO [(S)-(+)-leucinol]
quantitativeResult: 1.2
--
compound: C[C@@H](N)CCO [(R)-3-aminobutan-1-ol]
quantitativeResult: 2.7
--
compound: CCC[C@H](N)CO [(S)-(+)-2-amino-1-pentanol]
quantitativeResult: 1.2
--
compound: CCCC[C@H](N)CO [(S)-(+)-2-amino-1-hexanol]
quantitativeResult: 1.3
--
compound: CC(C)(C)[C@H](N)CO
quantitativeResult: 1.4

---

targetEntity: OCT1 (SLC22A1) (Homo sapiens, UniProt O15245)
Sequence (O15245 whole entry): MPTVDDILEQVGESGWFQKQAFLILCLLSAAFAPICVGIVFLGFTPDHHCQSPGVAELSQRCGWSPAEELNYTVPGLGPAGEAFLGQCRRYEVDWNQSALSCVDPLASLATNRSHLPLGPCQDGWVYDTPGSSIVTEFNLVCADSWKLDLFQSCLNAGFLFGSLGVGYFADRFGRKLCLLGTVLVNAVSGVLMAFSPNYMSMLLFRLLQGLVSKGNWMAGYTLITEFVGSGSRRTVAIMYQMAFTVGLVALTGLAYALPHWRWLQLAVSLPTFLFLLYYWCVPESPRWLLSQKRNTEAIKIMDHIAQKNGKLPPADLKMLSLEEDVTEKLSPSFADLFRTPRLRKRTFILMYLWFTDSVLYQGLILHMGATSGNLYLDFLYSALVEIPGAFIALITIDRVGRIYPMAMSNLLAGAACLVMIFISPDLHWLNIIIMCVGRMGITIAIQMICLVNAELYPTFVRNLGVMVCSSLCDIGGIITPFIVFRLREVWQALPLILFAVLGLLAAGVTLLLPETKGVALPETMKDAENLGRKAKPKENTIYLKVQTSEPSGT
experimentNotes: in vitro
assayConditions: pH 7.4
# key: entry, value: selectivity ratio at 2 min

compound: C[C@@H](N)CCO [(R)-3-aminobutan-1-ol]
selectivity ratio at 2 min: 1.1
--
compound: CCC[C@@H](N)CO [(R)-(−)-2-amino-1-pentanol]
selectivity ratio at 2 min: 1.1
--
compound: CC(C)(C)[C@H](N)CO
selectivity ratio at 2 min: 1.3
--
compound: CCCC[C@@H](N)CO [(R)-(−)-2-amino-1-hexanol]
selectivity ratio at 2 min: 1.1
--
compound: CC(C)[C@@H](N)CO
selectivity ratio at 2 min: 1.3

---

targetEntity: MATE1 (SLC47A1) (Homo sapiens, UniProt Q96FL8)
Sequence (Q96FL8 1-570): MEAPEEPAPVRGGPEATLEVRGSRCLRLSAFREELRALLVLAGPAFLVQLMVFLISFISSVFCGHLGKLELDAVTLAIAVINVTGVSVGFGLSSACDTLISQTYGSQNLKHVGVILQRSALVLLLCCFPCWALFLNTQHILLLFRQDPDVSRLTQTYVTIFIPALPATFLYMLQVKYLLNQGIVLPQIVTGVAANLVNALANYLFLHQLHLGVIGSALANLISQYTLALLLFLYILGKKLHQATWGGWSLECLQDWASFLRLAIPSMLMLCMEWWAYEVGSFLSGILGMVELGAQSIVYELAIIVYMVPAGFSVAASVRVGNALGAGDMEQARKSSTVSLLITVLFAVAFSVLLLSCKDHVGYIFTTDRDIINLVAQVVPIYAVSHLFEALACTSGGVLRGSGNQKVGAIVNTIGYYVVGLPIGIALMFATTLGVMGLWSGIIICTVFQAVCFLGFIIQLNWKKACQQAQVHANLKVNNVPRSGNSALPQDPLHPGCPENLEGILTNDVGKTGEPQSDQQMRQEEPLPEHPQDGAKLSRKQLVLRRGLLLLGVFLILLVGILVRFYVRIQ
experimentNotes: in vitro
assayConditions: pH 7.4

compound: CC(C)[C@@H](N)CO [D-valinol]
selectivity ratio at 1 min: 1.4
//
compound: CC(C)C[C@@H](N)CO [(R)-(−)-leucinol]
selectivity ratio at 1 min: 1.1
//
compound: C[C@@H](N)CCO [(R)-3-aminobutan-1-ol]
selectivity ratio at 1 min: 1.9
//
compound: CCCC[C@@H](N)CO [(R)-(−)-2-amino-1-hexanol]
selectivity ratio at 1 min: 1.2
//
compound: CC(C)(C)[C@@H](N)CO [(R)-(−)-tert-leucinol]
selectivity ratio at 1 min: 1.3
//
compound: CCC[C@@H](N)CO [(R)-(−)-2-amino-1-pentanol]
selectivity ratio at 1 min: 1.5

---

targetEntity: OCT3 (SLC22A3) (Homo sapiens, UniProt O75751)
Sequence (O75751 1-556): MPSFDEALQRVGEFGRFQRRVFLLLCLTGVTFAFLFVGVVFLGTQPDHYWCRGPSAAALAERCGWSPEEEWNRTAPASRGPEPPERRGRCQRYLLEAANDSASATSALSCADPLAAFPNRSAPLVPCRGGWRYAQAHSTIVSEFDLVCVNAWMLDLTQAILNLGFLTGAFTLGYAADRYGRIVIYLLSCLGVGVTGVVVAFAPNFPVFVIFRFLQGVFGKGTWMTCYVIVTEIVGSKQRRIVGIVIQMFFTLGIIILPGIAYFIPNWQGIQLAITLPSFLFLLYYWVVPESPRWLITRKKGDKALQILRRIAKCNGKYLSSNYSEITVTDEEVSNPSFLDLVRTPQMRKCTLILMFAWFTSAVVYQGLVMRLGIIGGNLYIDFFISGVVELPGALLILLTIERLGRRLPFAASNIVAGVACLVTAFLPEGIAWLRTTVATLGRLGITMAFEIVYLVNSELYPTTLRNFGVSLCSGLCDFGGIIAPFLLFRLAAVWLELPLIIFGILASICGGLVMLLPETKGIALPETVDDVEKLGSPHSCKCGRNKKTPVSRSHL
experimentNotes: Cellular uptake into OCT3-overexpressing HEK293 cells vs EV control cells (HPLC-MS/MS)
assayConditions: uptake ratio ≥2 = notable transport

substanceSmiles: NCCCCCO
substrate activity at OCT3 (in words): notable transport
//
substanceSmiles: NCCCCCCO
substrate activity at OCT3 (in words): notable transport
